System: RAW-Dual (murine macrophage reporter line)
Assay: NF-kB reporter (SEAP) activity fold change vs agonist alone; higher = enhanced NF-kB activity
Details: modulator concentration 10 µM; agonist: CpG ODN 1826 0.5 ug/mL
measurementKind: NF-kB reporter

O=c1cc2c(nn1CC1CCN(CC3(O)CCOCC3)CC1)CCCC2
1.08
CCCOc1ccc(C2NC(=O)NC(C)=C2C(=O)OC(C)C(C)(C)C)cc1OC (configuration not stated)
0.557
COc1cc(C)ccc1NC(=O)Cc1csc(NC(=O)Nc2ccccc2OC)n1
1.32
CCOC(=O)C1=C(C)NC(C)=C(C(=O)OCC)C1c1ccccc1/C=C/C(=O)OC(C)(C)C
1.04
COc1ccc(-c2oc3ccc(OC)cc3c2C(=O)Nc2ccccc2C)cc1
0.917
O=C(C=Cc1ccccc1)c1ccc(OC2OC(CO)C(O)C(O)C2O)cc1O (configuration not stated)
1.18
O=C(Cc1ccc(F)cc1F)N1CCC(n2c(=O)[nH]c3ccccc3c2=O)CC1
1.01
COc1ccc(S(=O)(=O)NCc2cccnc2-c2cnn(C)c2)cc1Cl
1.1
O=C(O)CCCNc1c(C(=O)Nc2ccc(Cl)cc2)cc([N+](=O)[O-])cc1[N+](=O)[O-]
0.817
O=C(Nc1ccon1)C1CN(C(=O)COc2ccccc2F)C1
1.08
O=C1C(=Cc2ccccc2)SC(=S)N1CO
0.546
O=c1ccc(-c2ccncc2)nn1CC1CCN(CC(F)(F)F)CC1
0.924
CC(=O)Oc1cccc2c1C(=O)c1c(OC(C)=O)cc(C(=O)O)cc1C2=O
1.14
CC(C)(C)C1CCC(OC(=O)CCC(=O)O)CC1 (configuration not stated)
0.999
COC(=O)c1ccc2c(c1)NC(=O)/C2=C(\Nc1ccc(N(C)C(=O)CN2CCN(C)CC2)cc1)c1ccccc1
1.34
CNC(=O)c1cc(Oc2ccc(NC(=O)Nc3ccc(Cl)c(C(F)(F)F)c3)cc2)ccn1.Cc1ccc(S(=O)(=O)O)cc1
0.448
C#CCN(C)Cc1ccccc1.Cl
0.99
Cn1ncc(Cl)c1-c1cc(C(=O)N[C@H](CN)Cc2ccc(F)c(F)c2)oc1Cl
1.13
Brc1ccc(Cn2c(CN3CCCC3)nc3ccccc32)cc1
0.679
C=CCn1c(SCC(=O)NCCN2CCOCC2)nc2sc3c(c2c1=O)CCC3
0.99
CN(C)c1nc(CNC(=O)CSc2nc3ccccc3o2)nc(N(C)C)n1
1.01
Cc1cc(-c2csc(NCc3ccccc3)n2)c(C)o1.Cl
0.766

###

Test system: RAW-Dual (murine macrophage reporter line)
Assay: IRF reporter (Lucia luciferase) activity fold change vs agonist alone; higher = enhanced IRF activity
Conditions: modulator concentration 10 µM; agonist: 3'3'-cGAMP 10 ug/mL
IRF reporter values by entry
measurementKind: IRF reporter

Cc1ccc(-c2cc(-c3ccccc3)nc(N3CCOCC3)n2)cc1
0.71
CN1C(=O)OC(C)(C)C1=O
1.04
CCC(C)(C)C(=O)O[C@H]1C[C@@H](C)C=C2C=C[C@H](C)[C@H](CC[C@@H]3C[C@@H](O)CC(=O)O3)[C@H]21
0.599
O=C(CSc1ccc2ccccc2n1)NC1=NCCS1
0.968
c1ccc(CN2CCN(c3cc(-c4cccnc4)n[nH]3)CC2)cc1
1.09
COc1cc2nc(N(C)CCCNC(=O)C3CCCO3)nc(N)c2cc1OC (stereo unspecified)
0.695
O=C(Cn1cnc(-c2ccc(F)cc2)cc1=O)N1CCOCC1
1.04
Cc1ccc(OCC(=O)NN=Cc2cc(Br)cc(Br)c2O)c([N+](=O)[O-])c1
1.01
O=C(CCn1c(=O)oc2ccccc21)Nc1ccccc1
0.969
COC(=O)c1ccc(N2C(=O)c3ccc(Oc4cccc([N+](=O)[O-])c4)cc3C2=O)cc1
0.994
COC(=O)c1ccc(CSc2ccc3nnc(-c4cccc(F)c4)n3n2)o1
0.966

###

System: RAW-Dual (murine macrophage reporter line)
Experiment: NF-kB reporter (SEAP) activity fold change vs agonist alone; higher = enhanced NF-kB activity
Details: modulator concentration 10 µM; agonist: CpG ODN 1826 0.5 ug/mL
Here, each record is paired with measured NF-kB reporter data.
measurementKind: NF-kB reporter

CS(=O)(=O)N1CCN(Cc2cc3nc(-c4cccc5[nH]ncc45)nc(N4CCOCC4)c3s2)CC1
0.179
COC(=O)Nc1nc2cc(C(=O)c3cccs3)ccc2[nH]1
2.4
C[C@H](N[C@@H](CCc1ccccc1)C(=O)O)C(=O)N1CCC[C@H]1C(=O)O.O.O
1.15
COc1ccc(C2NC(=O)C(O)=C2C(C)=O)cc1 (stereo not given)
0.734
Cn1c(=O)c2c(ncn2CC(O)CO)n(C)c1=O (stereo not given)
1.02
FC(F)(F)c1ccc(CNc2ccc(Cc3c[nH]c4ncc(Cl)cc34)cn2)cn1
0.154
Cc1nc(-c2ccc(S(=O)(=O)N3C4CCC3CC(Oc3cccnc3)C4)cc2)co1 (stereo not given)
1
CN(C)Cc1ccc(S(=O)(=O)n2ccc(/C=C/C(=O)NO)c2)cc1
0.517
Cc1ccc(C23CC4CC(CC(CN)(C4)C2)C3)cc1.Cl
0.827
O=C(C=Cc1ccccc1)NC(NC(=S)Nc1cccc2cccnc12)C(Cl)(Cl)Cl (stereo not given)
0.507

###

A collection of compounds and their measured viability score
Tested on: RAW-Dual (murine macrophage reporter line)
Experiment: viability score (confluency relative to resting cells, overnight) (fraction); higher = more viable, active = viable (0.7 or more)
Details: modulator concentration 10 µM
measurementKind: viability score

CCOc1ccc2nc(SC(c3ccccc3)c3ccccc3)sc2c1
0.661
CCOC(=O)N[C@@H]1CC[C@@H]2[C@@H](C1)C[C@H]1C(=O)O[C@H](C)[C@H]1[C@H]2/C=C/c1ccc(-c2cccc(F)c2)cn1
0.299
C1=CC2CC1CC2CN1CCC(N2CCCCC2)CC1 (stereo unspecified)
0.989
O=C(c1ccc2ccccc2n1)N1CCc2ncncc2C1
1.01
COC(=O)Nc1nc2cc(C(=O)c3cccs3)ccc2[nH]1
0.715
Cc1cc(CNC(=O)CCc2ccc(S(C)(=O)=O)cc2)c(C)o1
0.999
CCOc1ccc(N2CCN(CC(=O)O)C2=O)cc1
0.997
O=c1ncnc2[nH][nH]cc1-2
1.02
Cc1ccc(CNC(=O)CN(c2cccc3ccccc23)S(C)(=O)=O)cc1
1.01
CC(=O)Nc1ccc(S(=O)(=O)N2CCCc3ccccc32)cc1
0.984
COc1cc(Nc2ncc3c(n2)-c2ccc(Cl)cc2C(c2c(F)cccc2OC)=NC3)ccc1C(=O)O
0.92
CC(C)(C)C1CCc2c(sc(NC(=O)c3ccc(F)cc3)c2C(N)=O)C1 (stereo unspecified)
0.56
NC(=O)c1ncn([C@@H]2O[C@H](CO)[C@@H](O)[C@H]2O)c1N
0.994
COc1ccccc1N1CCN(CC(O)COc2cccc3ccccc23)CC1.Cl.Cl (stereo unspecified)
0.97
COC(=O)c1ccc(C=NN=C2C(=O)Nc3ccccc32)cc1
0.998
CC1(C)Cc2cccc(OCC(=O)NCc3ccccn3)c2O1
0.996
O=C(Nc1ccc(NS(=O)(=O)c2ccccc2)cc1)c1ccco1
1
CCOC(=O)C1=C(C)NC(C)=C(C(=O)OCC)C1c1ccc(OC)cc1
0.946
Cc1ccc(-n2nc(C(C)(C)C)cc2NC(=O)NCc2cc(F)ccc2Oc2ccc3c(cnn3CCO)c2)cc1
1.01
O=C(Nc1c(Cl)cncc1Cl)c1ccc(OC(F)F)c(OCC2CC2)c1
0.968
Cl.O[C@@H](CNC[C@H](O)[C@H]1CCc2cc(F)ccc2O1)[C@@H]1CCc2cc(F)ccc2O1
0.13

###

Test system: RAW-Dual (murine macrophage reporter line)
Assay: NF-kB reporter (SEAP) activity fold change vs agonist alone; higher = enhanced NF-kB activity
Settings: modulator concentration 10 µM; agonist: MPLA […]
// NF-kB reporter lookup, one value per entry
measurementKind: NF-kB reporter

Br.C=CCn1c(=N)n(CC(=O)c2cccc([N+](=O)[O-])c2)c2ccccc21
0.905
CC12CCC(=O)C=C1C=CC1C2CCC2(C)C1CCC21CCC(=O)O1 (stereo not given)
0.93
O=C(NC(=S)Nc1ccc2[nH]c(=O)[nH]c2c1)c1ccc(Cl)cc1
0.95
CN1CCN(CCCN2c3ccccc3Sc3ccc(C(F)(F)F)cc32)CC1.Cl.Cl
1.3
O=C(OC1Cc2c(O)cc(O)cc2OC1c1cc(O)c(O)c(O)c1)c1cc(O)c(O)c(O)c1 (stereo not given)
1.02
CC(=O)C(C(=O)Nc1ccc(F)cc1)C(c1ccc(Cl)cc1Cl)C(C#N)C#N (stereo not given)
0.915
O=C(C=Cc1ccccc1)c1ccc(OC2OC(CO)C(O)C(O)C2O)cc1O (stereo not given)
0.94
CN(C)CC/C=C1\c2ccccc2COc2ccccc21.Cl
1.36
O=C(NC(=S)NNc1ccccc1)c1cc2ccccc2oc1=O
1.03
CC(C)N1CCN(c2ccc(OC[C@H]3CO[C@](Cn4cncn4)(c4ccc(Cl)cc4Cl)O3)cc2)CC1
1.08
